Reported DC50 by item:
target: WIZ protein (HiBit-WIZ fusion protein) (Homo sapiens, UniProt O95785+Q96SW2); construct: expressed in transfected cells; experiment: Quantification of WIZ protein levels in HiBit tag fusion protein assay (WIZ HiBit assay in 293T cells); type: cell-based; details: WIZ HiBit assay in 293T cells; 10-point, 5-fold dose response, highest concentration 25 μM, about 18 hours; read-out: WIZ AC50
Sequence (O95785 whole entry, the tested form may be a part): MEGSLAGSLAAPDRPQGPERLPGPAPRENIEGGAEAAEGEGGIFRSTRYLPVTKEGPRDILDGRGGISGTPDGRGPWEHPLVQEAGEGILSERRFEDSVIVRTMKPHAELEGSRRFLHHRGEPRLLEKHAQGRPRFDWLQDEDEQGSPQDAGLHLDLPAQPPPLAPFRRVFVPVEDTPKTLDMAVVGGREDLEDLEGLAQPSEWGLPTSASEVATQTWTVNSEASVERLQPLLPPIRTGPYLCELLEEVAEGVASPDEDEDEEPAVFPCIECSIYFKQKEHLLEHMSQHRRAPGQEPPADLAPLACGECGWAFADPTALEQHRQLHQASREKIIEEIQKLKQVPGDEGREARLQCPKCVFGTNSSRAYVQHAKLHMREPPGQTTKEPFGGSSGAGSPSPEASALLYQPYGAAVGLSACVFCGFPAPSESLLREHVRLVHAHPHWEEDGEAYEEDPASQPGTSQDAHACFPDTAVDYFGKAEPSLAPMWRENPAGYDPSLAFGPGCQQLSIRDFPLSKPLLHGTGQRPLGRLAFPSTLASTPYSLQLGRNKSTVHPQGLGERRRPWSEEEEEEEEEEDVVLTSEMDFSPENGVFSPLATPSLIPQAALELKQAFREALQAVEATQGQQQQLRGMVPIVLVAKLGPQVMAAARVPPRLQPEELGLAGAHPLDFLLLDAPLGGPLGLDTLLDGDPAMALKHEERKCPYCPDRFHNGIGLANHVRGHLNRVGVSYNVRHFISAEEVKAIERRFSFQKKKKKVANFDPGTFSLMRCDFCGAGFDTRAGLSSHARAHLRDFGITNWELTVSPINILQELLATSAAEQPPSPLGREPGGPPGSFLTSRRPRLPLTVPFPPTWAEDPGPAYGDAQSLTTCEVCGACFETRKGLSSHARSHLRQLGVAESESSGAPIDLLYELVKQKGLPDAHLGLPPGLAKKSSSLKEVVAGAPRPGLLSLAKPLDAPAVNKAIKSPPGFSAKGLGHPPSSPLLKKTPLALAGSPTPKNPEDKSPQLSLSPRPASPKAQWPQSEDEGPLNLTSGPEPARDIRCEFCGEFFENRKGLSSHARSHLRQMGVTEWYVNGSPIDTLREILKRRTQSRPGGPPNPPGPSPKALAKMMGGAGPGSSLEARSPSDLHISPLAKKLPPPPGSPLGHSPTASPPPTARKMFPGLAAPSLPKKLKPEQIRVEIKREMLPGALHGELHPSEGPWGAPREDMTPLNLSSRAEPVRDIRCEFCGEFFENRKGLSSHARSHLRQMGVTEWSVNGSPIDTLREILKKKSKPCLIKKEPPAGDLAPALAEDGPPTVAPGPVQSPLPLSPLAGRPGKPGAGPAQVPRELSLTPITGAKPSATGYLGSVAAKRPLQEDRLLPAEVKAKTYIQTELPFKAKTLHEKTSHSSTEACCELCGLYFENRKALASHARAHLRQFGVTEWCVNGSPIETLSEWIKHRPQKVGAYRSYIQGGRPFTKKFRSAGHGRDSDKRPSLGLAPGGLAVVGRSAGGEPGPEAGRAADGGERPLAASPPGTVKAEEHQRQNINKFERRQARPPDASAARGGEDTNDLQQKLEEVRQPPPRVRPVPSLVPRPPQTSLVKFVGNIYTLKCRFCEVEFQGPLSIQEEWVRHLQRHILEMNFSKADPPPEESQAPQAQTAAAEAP
Sequence (Q96SW2 whole entry, the tested form may be a part): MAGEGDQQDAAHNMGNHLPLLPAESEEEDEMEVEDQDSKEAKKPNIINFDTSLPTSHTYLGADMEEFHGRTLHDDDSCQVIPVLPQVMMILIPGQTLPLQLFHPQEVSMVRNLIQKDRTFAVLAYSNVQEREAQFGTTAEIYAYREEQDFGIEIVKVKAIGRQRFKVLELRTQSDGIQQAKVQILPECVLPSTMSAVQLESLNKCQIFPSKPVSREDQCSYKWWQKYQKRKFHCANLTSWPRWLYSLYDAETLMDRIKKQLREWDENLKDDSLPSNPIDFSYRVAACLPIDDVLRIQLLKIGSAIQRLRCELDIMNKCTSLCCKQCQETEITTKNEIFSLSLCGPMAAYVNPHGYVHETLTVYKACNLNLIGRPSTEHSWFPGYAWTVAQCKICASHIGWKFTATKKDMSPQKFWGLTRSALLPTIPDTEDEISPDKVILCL
Sequence (Q16531 whole entry partner, the tested form may be a part): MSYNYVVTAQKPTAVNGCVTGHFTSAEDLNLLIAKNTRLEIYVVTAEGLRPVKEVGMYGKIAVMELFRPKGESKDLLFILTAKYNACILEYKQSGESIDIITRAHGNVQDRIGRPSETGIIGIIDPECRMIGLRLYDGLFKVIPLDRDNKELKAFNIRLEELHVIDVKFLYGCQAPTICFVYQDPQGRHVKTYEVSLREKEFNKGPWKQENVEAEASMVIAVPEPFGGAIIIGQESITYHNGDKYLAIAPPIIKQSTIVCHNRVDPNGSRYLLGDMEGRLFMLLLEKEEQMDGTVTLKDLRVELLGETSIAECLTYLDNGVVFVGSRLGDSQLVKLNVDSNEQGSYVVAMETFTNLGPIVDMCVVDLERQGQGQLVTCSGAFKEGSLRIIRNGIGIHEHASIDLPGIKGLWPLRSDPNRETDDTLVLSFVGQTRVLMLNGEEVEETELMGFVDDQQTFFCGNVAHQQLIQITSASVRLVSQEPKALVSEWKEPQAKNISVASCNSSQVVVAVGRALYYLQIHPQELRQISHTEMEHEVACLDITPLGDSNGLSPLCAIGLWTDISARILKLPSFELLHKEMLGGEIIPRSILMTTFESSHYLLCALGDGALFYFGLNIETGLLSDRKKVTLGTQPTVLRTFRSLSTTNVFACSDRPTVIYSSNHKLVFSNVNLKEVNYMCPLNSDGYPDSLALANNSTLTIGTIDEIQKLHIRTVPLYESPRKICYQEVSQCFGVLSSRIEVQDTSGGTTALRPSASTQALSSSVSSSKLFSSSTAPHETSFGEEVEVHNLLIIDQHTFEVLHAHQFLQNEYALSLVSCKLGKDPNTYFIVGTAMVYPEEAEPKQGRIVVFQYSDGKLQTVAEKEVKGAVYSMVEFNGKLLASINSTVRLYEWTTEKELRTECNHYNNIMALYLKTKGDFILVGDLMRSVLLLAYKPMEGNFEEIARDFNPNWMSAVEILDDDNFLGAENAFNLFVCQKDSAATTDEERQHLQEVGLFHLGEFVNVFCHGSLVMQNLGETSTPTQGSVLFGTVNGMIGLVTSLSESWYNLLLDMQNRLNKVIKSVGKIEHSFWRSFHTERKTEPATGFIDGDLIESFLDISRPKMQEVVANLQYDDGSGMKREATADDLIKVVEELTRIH

Illustrative cases are given below, each with its answer.
Compound | System Name | DC50
COCC(F)(F)CN1CC[C@@H](Cc2ccn3ncc(N4CCC(=O)NC4=O)c3c2)C[C@@H]1C [Example 278] | WIZ protein (HiBit-WIZ fusion protein) (Homo sapiens, UniProt O95785+Q96SW2) | 0.066 µM
COc1cn(-c2cnn3ccc(CN4CCN(CC(C)C)[C@@H](C)C4)cc23)c(=O)[nH]c1=O [Example 360] | WIZ protein (HiBit-WIZ fusion protein) (Homo sapiens, UniProt O95785+Q96SW2) | > 25 µM

Now let's try a different one.
Entry CC(C)CN1CCN(Cc2ccn3ncc(N4CCC(=O)NC4=O)c3c2)C(=O)C1 [Example 254] , DC50 reported as > 25 µM
